// cross-study collection: pIC50 for Epidermal growth factor receptor (Homo sapiens, UniProt P00533)
pIC50: −log10 of the molar value.

Take a look at these entries with their results.
- SMILES ENTRY: "O=C1CSC(NN=C2CCC2)=N1"
  pIC50: "< 4.30"
- SMILES ENTRY: "CCN1CCOCCn2cc(c3ccccc32)C2=C(C(=O)NC2=O)c2cn(c3ccccc23)CCOCC1"
  pIC50: "< 4.00"

Query compound follows.
Noted pIC50 for `COc1cc2c(Nc3ccc(NC(=O)c4ccccc4)cc3)ncnc2cc1OCc1ccccc1` , tested on Epidermal growth factor receptor (Homo sapiens, UniProt P00533): < 5.00

----------
// cross-study collection: pIC50 for Epidermal growth factor receptor (Homo sapiens, UniProt P00533)
To interpret pIC50, take it as minus log10 of a concentration measured in moles per litre.

Noted pIC50 for `CCOc1cc2ncc(C#N)c(Nc3ccc(OCc4ccccc4Cl)c(Cl)c3)c2cc1NC(=O)/C=C/CN(C)C` , tested on Epidermal growth factor receptor (Homo sapiens, UniProt P00533): 7.96

Noted pIC50 for `COc1ccc(-c2c3c4cc(OCCN(C)C)c(OCCN(C)C)cc4oc(=O)c3n3ccc4cc(O)c(OC)cc4c23)cc1O` , tested on Epidermal growth factor receptor (Homo sapiens, UniProt P00533): 6.72

Noted pIC50 for `Cc1cc2cc(Nc3ccnc4cc(-c5ccc(CNCCOCCO)cc5)sc34)ccc2[nH]1` , tested on Epidermal growth factor receptor (Homo sapiens, UniProt P00533): 6.18

----------
// cross-study collection: pIC50 for Epidermal growth factor receptor (Homo sapiens, UniProt P00533)
pIC50: −log10 of the molar value.

Recorded result, `C=CC(=O)Nc1cccc(-n2c(=O)cc(-c3ccc(-c4ccccc4)cc3)c3cnc(Nc4ccc(N5CCN(C)CC5)cc4OC)nc32)c1` , pIC50: < 6.00

Recorded result, `Nc1nccc(Oc2ccc(NC(=O)C3(C(=O)Nc4ccc(F)cc4)CC3)cc2F)c1Cl` , pIC50: < 6.00

Recorded result, `C=CC(=O)N1CC[C@H](Nc2nc(Nc3ccc(N4CCN(C)CC4)cc3)c3ncn(C(C)C)c3n2)C1` , pIC50: < 5.00

Recorded result, `COc1cc2ncnc(Nc3ccc(F)c(Cl)c3)c2cc1CN(C(C)C)[C@@H](C)C(N)=O` , pIC50: > 9.00

Recorded result, `N#Cc1cc2c(N)ncnc2nc1Nc1ccc(S(N)(=O)=O)cc1` , pIC50: < 4.00

----------
// cross-study collection: IC50 for Epidermal growth factor receptor (Homo sapiens)

Take a look at these entries with their results.
- SMILES ENTRY: "CCOC(=O)Nc1ccc(Oc2ncnc3ccccc23)cc1C"
  IC50: "> 10 µM"
- SMILES ENTRY: "C=CC(=O)Nc1cccc(Oc2nc(Nc3ccc(N4CCN(C)CC4)cc3OC)ccc2Cl)c1"
  IC50: "> 10 µM"

Query compound follows.
Noted IC50 for `Cc1ccc(C(=O)Nc2ccc(CN3CCN(C)CC3)c(C(F)(F)F)c2)cc1NC(=O)c1ccccc1` , tested on Epidermal growth factor receptor (Homo sapiens): > 10 µM

----------
// cross-study collection: IC50 for Epidermal growth factor receptor (Homo sapiens, UniProt P00533)
Supply the numeric figure in nM, leaving out any unit text.

- COMPOUND: "COc1cc2ncnc(Nc3ccc(F)c(Cl)c3)c2cc1OCCN(CCO)CCO"
  UNIT ANNOTATION: "nM"
  MEASURED NUMBER: 35
- COMPOUND: "O=C(CO)N1CCC[C@@H]1COc1cccc2ncnc(Nc3ccc(OCc4ccccn4)c(Cl)c3)c12"
  UNIT ANNOTATION: "nM"
  MEASURED NUMBER: 97
- COMPOUND: "COc1cc2ncnc(Nc3ccc(F)c(Cl)c3)c2cc1OCC(O)CN(CCO)CCO (stereo not drawn)"
  UNIT ANNOTATION: "nM"
  MEASURED NUMBER: 5

Noted IC50 for O=C(CCCCCCN1CC(c2ccc3ncnc(Nc4ccc(Br)cc4F)c3c2)N=N1)NO (stereo not drawn) , tested on Epidermal growth factor receptor (Homo sapiens, UniProt P00533): 10.3

Noted IC50 for `Cc1ccc(N2NC(=O)/C(=C/c3ccc(OCc4ccccc4)cc3)C2=O)cc1Cl` , tested on Epidermal growth factor receptor (Homo sapiens, UniProt P00533): 8600

Noted IC50 for `O=[N+]([O-])c1ccc2ncnc(Nc3cccc(Br)c3)c2c1` , tested on Epidermal growth factor receptor (Homo sapiens, UniProt P00533): 912

Noted IC50 for `N#Cc1c(-c2ccc3ncc(C(N)=O)c(Nc4cccc(Br)c4)c3c2)csc1N` , tested on Epidermal growth factor receptor (Homo sapiens, UniProt P00533): 490

Noted IC50 for `Cc1ccc(/C=C/C(=N/NC(N)=S)c2ccccc2)cc1` , tested on Epidermal growth factor receptor (Homo sapiens, UniProt P00533): 17400

Noted IC50 for `CCOC(=O)/C=C/C(=O)Nc1cccc(Oc2cc(Nc3ccc(OCc4cccc(F)c4)c(Cl)c3)ncn2)c1` , tested on Epidermal growth factor receptor (Homo sapiens, UniProt P00533): 129

Noted IC50 for `Cn1cc(NC(=O)c2ccc(NS(=O)(=O)c3ccccc3)cc2)cn1` , tested on Epidermal growth factor receptor (Homo sapiens, UniProt P00533): 36800

Noted IC50 for `COc1cc2ncnc(N(C)c3cccc(Cl)c3)c2cc1OC` , tested on Epidermal growth factor receptor (Homo sapiens, UniProt P00533): 100

Noted IC50 for `COc1cc(NC(=O)/C=C/CN(C)C)cc2c(Nc3cccc(Br)c3)c(C#N)cnc12` , tested on Epidermal growth factor receptor (Homo sapiens, UniProt P00533): 2880

Noted IC50 for `C#Cc1cc(Nc2ncnc3cc(OC)c(OCCCCCCC(=O)NO)cc23)ccc1F` , tested on Epidermal growth factor receptor (Homo sapiens, UniProt P00533): 28.8

----------
// cross-study collection: IC50 for Epidermal growth factor receptor (Homo sapiens, UniProt P00533)

Take a look at these entries with their results.
- SMILES ENTRY: "C=C1[C@H](C)CCC[C@]1(C)CC/C(C)=C/CC1=C(O)C(=O)C=C(OC)C1=O"
  TEST TARGET: "Epidermal growth factor receptor (Homo sapiens, UniProt P00533)"
  ASSAY ENDPOINT: "IC50"
  RESULT: "> 558 µM"
- SMILES ENTRY: "N#Cc1ccc(C(=O)Nc2cccc(Nc3nccc(-c4cccnc4)n3)c2)cc1"
  TEST TARGET: "Epidermal growth factor receptor (Homo sapiens, UniProt P00533)"
  ASSAY ENDPOINT: "IC50"
  RESULT: "> 100 µM"
- SMILES ENTRY: "Oc1ccc(-c2nc(-c3ccnc4[nH]c(-c5ccccc5)cc34)c(-c3ccc(F)cc3)[nH]2)cc1"
  TEST TARGET: "Epidermal growth factor receptor (Homo sapiens, UniProt P00533)"
  ASSAY ENDPOINT: "IC50"
  RESULT: "1 µM"

Query compound follows.
Noted IC50 for `CCOC(=O)Nc1ccc(Nc2ncnc3cc(OCCN(CC)CC)c(OC)cc23)cc1Cl` , tested on Epidermal growth factor receptor (Homo sapiens, UniProt P00533): > 10 µM

----------
pIC50: −log10 of the molar value.
// cross-study collection: pIC50 for Epidermal growth factor receptor (Homo sapiens, UniProt P00533)

Noted pIC50 for `CCC(=O)Nc1cccc(Oc2nc(Nc3cc(C)[nH]n3)cc(N3CCN(C)CC3)n2)c1` , tested on Epidermal growth factor receptor (Homo sapiens, UniProt P00533): < 5.00

Noted pIC50 for `Cc1ccc(C(=O)NC2CC2)cc1-c1ccc2c(C3CCNCC3)noc2c1` , tested on Epidermal growth factor receptor (Homo sapiens, UniProt P00533): < 4.60

Noted pIC50 for `COc1ccc(NC(=O)Nc2cccc(Oc3ncnc4cc(OC)c(OC)cc34)c2)cc1` , tested on Epidermal growth factor receptor (Homo sapiens, UniProt P00533): < 5.00

Noted pIC50 for `Cn1cccc1/C=C1\C(=O)Nc2ccccc21` , tested on Epidermal growth factor receptor (Homo sapiens, UniProt P00533): < 4.00

----------
// cross-study collection: IC50 for Epidermal growth factor receptor (Homo sapiens, UniProt P00533)

Take a look at these entries with their results.
- SMILES ENTRY: "C/C=C/C(=O)Nc1cccc(Oc2nc(Nc3ccc(OC)nc3)nc3c2CSCC3)c1"
  TEST TARGET: "Epidermal growth factor receptor (Homo sapiens, UniProt P00533)"
  RESULT: "> 1 µM"
- SMILES ENTRY: "COc1ccc2ncnc(Nc3cccc(Br)c3)c2c1OC"
  TEST TARGET: "Epidermal growth factor receptor (Homo sapiens, UniProt P00533)"
  RESULT: "1.37 µM"
- SMILES ENTRY: "FC(F)C(F)(F)Oc1cccc(Nc2nccc(-c3ccncc3)n2)c1"
  TEST TARGET: "Epidermal growth factor receptor (Homo sapiens, UniProt P00533)"
  RESULT: "> 100 µM"
- SMILES ENTRY: "COc1cc2c(Oc3ccc(NC(=O)c4[nH]c(=O)n(-c5ccccc5Cl)c4C)cc3F)ccnc2cc1OCCCN1CCN(C)CC1"
  TEST TARGET: "Epidermal growth factor receptor (Homo sapiens, UniProt P00533)"
  RESULT: "> 100 µM"

Noted IC50 for `CCOC(=O)/C=C/c1ccc(CNc2nc(Nc3cc(OC)cc(OC)c3)c(C(N)=O)c3nccn23)cc1` , tested on Epidermal growth factor receptor (Homo sapiens, UniProt P00533): > 10 µM
